Molecular target: human PPARγ (Homo sapiens)
Test: Membrane-bound PPARγ binding assay ([3H]rosiglitazone competition, filtration)
Settings: competition with [3H]rosiglitazone (4 nM), 180 min at 4 °C; read-out: Ki (nM), hPPARγ binding affinity
OBSERVATION TYPE: Ki (nM)

1 = CCOC(Cc1ccc(OCCN2C(=O)CSc3ccc(C(=O)c4ccccc4)cc32)cc1)C(=O)O (centres unmarked) [Compound 33]
2 = CCOC(Cc1ccc(OCCn2c(=O)sc3cc(/C(=N/O)c4ccccc4)ccc32)cc1)C(=O)O (centres unmarked) [Compound 39a]
3 = CCO[C@H](Cc1ccc(OCCn2c(=O)sc3cc(/C(=N/OC)c4ccccc4)ccc32)cc1)C(=O)O [Compound 46a]
4 = CCO[C@@H](Cc1ccc(OCCn2c(=O)sc3cc(/C(=N/O)c4ccccc4)ccc32)cc1)C(=O)O [Compound 43a]
5 = CCOC(Cc1ccc(OCCn2c(=O)sc3cc(C(=O)c4ccccc4)ccc32)cc1)C(=O)O (centres unmarked) [Compound 32a]
Order field: Ki | Direction: descending (largest first) Please list each label once, in the requested order.
1, 3, 5, 2, 4

###

Target: human PPARγ (Homo sapiens)
Sequence (P37231 235-505 limits assumed): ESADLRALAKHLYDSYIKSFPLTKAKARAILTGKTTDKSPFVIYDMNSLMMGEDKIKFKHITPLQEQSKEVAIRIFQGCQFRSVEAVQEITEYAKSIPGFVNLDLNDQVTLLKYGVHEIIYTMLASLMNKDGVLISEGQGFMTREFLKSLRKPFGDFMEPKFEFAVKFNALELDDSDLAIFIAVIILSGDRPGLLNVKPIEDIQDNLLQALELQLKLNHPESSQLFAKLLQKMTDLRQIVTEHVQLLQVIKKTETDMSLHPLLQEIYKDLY
Experiment: Membrane-bound PPARγ binding assay ([3H]rosiglitazone competition, filtration)
Settings: competition with [3H]rosiglitazone (4 nM), 180 min at 4 °C; read-out: Ki (nM), hPPARγ binding affinity
OBSERVATION TYPE: Ki (nM)

Use the examples below as a reference point.
| COMPOUND | TARGET OR TEST SYSTEM | Ki [nM] |
| --- | --- | --- |
| CCO[C@@H](Cc1ccc(OCCn2c(=O)sc3cc(C(=O)c4ccccc4)ccc32)cc1)C(=O)O [Compound 41a] | human PPARγ (Homo sapiens) | 0.5 |
| CCOC(Cc1ccc(OCCN2C(=O)COc3cc(C(=O)c4ccccc4)ccc32)cc1)C(=O)O (stereo not drawn) | human PPARγ (Homo sapiens) | 1 |
| CCO[C@@H](Cc1ccc(OCCn2c(=O)sc3cc(/C(=N/OC)c4ccccc4)ccc32)cc1)C(=O)O [Compound 44a] | human PPARγ (Homo sapiens) | 0.7 |
| CCOC(Cc1ccc(OCCN2C(=O)COc3ccc(C(=O)c4ccccc4)cc32)cc1)C(=O)O (stereo not drawn) | human PPARγ (Homo sapiens) | 3 |
| CCO[C@H](Cc1ccc(OCCn2c(=O)sc3cc(/C(=N/O)c4ccccc4)ccc32)cc1)C(=O)O [Compound 45a] | human PPARγ (Homo sapiens) | 210 |
| CCO[C@H](Cc1ccc(OCCn2c(=O)sc3cc(C(=O)c4ccccc4)ccc32)cc1)C(=O)O [Compound 42a] | human PPARγ (Homo sapiens) | 70 |

1 = CCOC(Cc1ccc(OCCN2C(=O)CSc3cc(C(=O)c4ccccc4)ccc32)cc1)C(=O)O (stereo not drawn)
2 = CCOC(Cc1ccc(OCCN2C(=O)Cc3cc(C(=O)c4ccccc4)ccc32)cc1)C(=O)O (stereo not drawn)
Parameter check: reported Ki is higher for which label, 1 or 2 ? Pick one; state its label.
2
(2: 6.5 nM, 1: 4 nM)

These entries and their values trace back to paper PMC7006651.
